System: Escherichia coli
Assay: Inhibition of Escherichia coli MurD ligase assessed as residual activity at 500 uM after 15 mins using UDP-MurNAc-L-Ala substrate by malachite green colorimetric method
For each record, write down the corresponding Activity.
One number for each entry, in %.

Solved entries:
{"Test smiles": "O=C(O)CC[C@@H](NC(=O)c1ccc(COc2cccc(/C=C3\\SC(=O)NC3=O)c2)cc1)C(=O)O", "Target entity": "Escherichia coli", "Observed result": 79}
{"Test smiles": "O=C(O)CC[C@@H](NC(=O)c1ccc(COc2ccc(Cn3ccc(=O)[nH]c3=O)cc2)cc1)C(=O)O", "Target entity": "Escherichia coli", "Observed result": 85}
{"Test smiles": "O=C(O)CC[C@@H](NC(=O)c1ccc(COc2ccc(/C=C3\\SC(=O)NC3=O)cc2OCC(=O)O)cc1)C(=O)O", "Target entity": "Escherichia coli", "Observed result": 86}
{"Test smiles": "O=C(O)CC[C@@H](NC(=O)c1cccc(COc2ccc(Cn3ccc(=O)[nH]c3=O)cc2)c1)C(=O)O", "Target entity": "Escherichia coli", "Observed result": 86}

Attention now shifts to the item below.
Task: Missing value: Activity, Escherichia coli, entry O=C(O)CC[C@@H](NC(=O)c1cccc(COc2cccc(/C=C3\SC(=O)NC3=O)c2)c1)C(=O)O . Fill in?
Result: 65
